Molecular target: IDH1 R132H (Homo sapiens (Human), UniProt O75874, R132H)
Sequence (O75874 whole entry R132H): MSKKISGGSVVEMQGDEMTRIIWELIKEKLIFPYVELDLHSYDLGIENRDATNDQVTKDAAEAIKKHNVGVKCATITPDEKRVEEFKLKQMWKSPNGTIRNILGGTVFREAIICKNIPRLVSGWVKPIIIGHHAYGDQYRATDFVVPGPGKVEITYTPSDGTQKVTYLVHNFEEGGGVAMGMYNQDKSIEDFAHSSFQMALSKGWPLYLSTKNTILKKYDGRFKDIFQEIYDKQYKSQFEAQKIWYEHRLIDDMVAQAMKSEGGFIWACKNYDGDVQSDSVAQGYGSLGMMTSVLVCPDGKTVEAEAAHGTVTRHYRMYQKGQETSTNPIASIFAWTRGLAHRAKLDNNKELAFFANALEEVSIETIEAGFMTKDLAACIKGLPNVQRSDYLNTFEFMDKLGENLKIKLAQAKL
Assay: Assays for IDH1 R132H Inhibitors (NADPH/aKG, resazurin detection)
Assay type: biochemical
Settings: IDH1 R132H enzyme, Table 3; read-out: R132H IC50
measure-name: IC50

{"molecule": "CC1(C)Cc2c(C#N)c(N3CCN(C(=O)C4CC4)C(C(F)F)C3)nc(C3CC3)c2CO1 (stereo not drawn)", "IC50": "500 to 1000 nM"}
{"molecule": "COCCC(=O)N1CCN(c2nc(C3CC3)c3c(c2C#N)CCN(S(C)(=O)=O)C3)C[C@H]1C1CC1", "IC50": "< 500 nM"}
{"molecule": "CC1(C)Cc2c(C#N)c(N3CCN(C(=O)CC(F)(F)F)C(C4CC4)C3)nc(C3CC3)c2CO1 (stereo not drawn)", "IC50": "< 500 nM"}
{"molecule": "[2H]C([2H])([2H])C([2H])(C([2H])([2H])[2H])[C@@]1([2H])N(C(=O)CC(F)(F)F)C([2H])([2H])C([2H])([2H])N(c2nc(C3CC3)c3c(c2C#N)CC(C)(C)OC3)C1([2H])[2H] [Compound 452]", "IC50": "< 500 nM"}

Ask: Suppose we examine the molecule "CC1(C)Cc2c(C#N)c(N3CCN(C(=O)CC(F)(F)F)[C@H](C4CC4)C3)nc(C3CC3)c2CO1" ; what IC50 value has been reported?
Result: < 500 nM

Ask: Requested read-out: IC50. Entry: "C=CC(=O)N1CCc2c(C#N)c(N3CCN(C(=O)CCO)[C@H](C4CC4)C3)nc(C3CC3)c2C1"
Result: < 500 nM

Value source: patent US9662327B2
